Values from paper PMC3961306

- System: forty-four human cancer cell lines
- Test Summary: Cell proliferation assay (ATPlite, 72 hours) in the 44 cell line Oncolines panel
- Type: cell-based
- Study Conditions: Homo sapiens, SW480, read-out: cell panel IC50, SW480
Measured Metric: pIC50
Friendly reminder that pIC50 comes from taking -log10 of the concentration in mol/L.

Please review the following examples before continuing.
CS(=O)(=O)CCNCc1ccc(-c2ccc3ncnc(Nc4ccc(OCc5cccc(F)c5)c(Cl)c4)c3c2)o1	4.88
CNC(=O)c1cc(Oc2ccc(NC(=O)Nc3ccc(Cl)c(C(F)(F)F)c3)cc2)ccn1	5.27

**Query** Given the molecule CCN(CC)CCNC(=O)c1c(C)[nH]c(/C=C2\C(=O)Nc3ccc(F)cc32)c1C , what is its reported pIC50?
**Result** 5.25

**Query** Queued: Cc1cn(-c2cc(NC(=O)c3ccc(C)c(Nc4nccc(-c5cccnc5)n4)c3)cc(C(F)(F)F)c2)cn1
**Result** 4.75

**Query** Please do the same for COc1cc(Nc2c(C#N)cnc3cc(OCCCN4CCN(C)CC4)c(OC)cc23)c(Cl)cc1Cl as well.
**Result** 4.98

====

- Experimental Target: panel of more than 300 wild-type and mutant kinases (313 kinase panel) (Homo sapiens)
- Test Summary: Kinase profiling in a biochemical assay panel (mobility shift assays and ELISA), %-inhibition at 1 μM; selectivity entropy
- Study Conditions: kinase CaMK2γ; 1 μM compound
Measured Metric: %-inhibition, CaMK2γ (%)
Express it in %; write the number only.

Please review the entries below; each comes with its answer.
O=S(=O)(c1cccc2cnccc12)N1CCCNCC1	-3.38
CC(C)(C)c1nc(-c2cccc(NS(=O)(=O)c3c(F)cccc3F)c2F)c(-c2ccnc(N)n2)s1	-5.47
CO[C@H]1C[C@@H]2CC[C@@H](C)[C@@](O)(O2)C(=O)C(=O)N2CCCC[C@H]2C(=O)O[C@H]([C@H](C)C[C@@H]2CC[C@@H](OCCO)[C@H](OC)C2)CC(=O)[C@H](C)/C=C(\C)[C@@H](O)[C@@H](OC)C(=O)[C@H](C)C[C@H](C)/C=C/C=C/C=C/1C	-16

**Query** Return reported %-inhibition, CaMK2γ; argument: CO[C@H]1C[C@@H]2CC[C@@H](C)[C@@](O)(O2)C(=O)C(=O)N2CCCC[C@H]2C(=O)O[C@H]([C@H](C)C[C@@H]2CC[C@@H](OC(=O)C(C)(CO)CO)[C@H](OC)C2)CC(=O)[C@H](C)/C=C(\C)[C@@H](O)[C@@H](OC)C(=O)[C@H](C)C[C@H](C)/C=C/C=C/C=C/1C
**Result** -14

**Query** And CCCS(=O)(=O)Nc1ccc(F)c(C(=O)c2c[nH]c3ncc(-c4ccc(Cl)cc4)cc23)c1F ?
**Result** -10

====

- Experimental Target: panel of more than 300 wild-type and mutant kinases (313 kinase panel) (Homo sapiens, UniProt Q12851)
- Sequence (Q12851 1-820): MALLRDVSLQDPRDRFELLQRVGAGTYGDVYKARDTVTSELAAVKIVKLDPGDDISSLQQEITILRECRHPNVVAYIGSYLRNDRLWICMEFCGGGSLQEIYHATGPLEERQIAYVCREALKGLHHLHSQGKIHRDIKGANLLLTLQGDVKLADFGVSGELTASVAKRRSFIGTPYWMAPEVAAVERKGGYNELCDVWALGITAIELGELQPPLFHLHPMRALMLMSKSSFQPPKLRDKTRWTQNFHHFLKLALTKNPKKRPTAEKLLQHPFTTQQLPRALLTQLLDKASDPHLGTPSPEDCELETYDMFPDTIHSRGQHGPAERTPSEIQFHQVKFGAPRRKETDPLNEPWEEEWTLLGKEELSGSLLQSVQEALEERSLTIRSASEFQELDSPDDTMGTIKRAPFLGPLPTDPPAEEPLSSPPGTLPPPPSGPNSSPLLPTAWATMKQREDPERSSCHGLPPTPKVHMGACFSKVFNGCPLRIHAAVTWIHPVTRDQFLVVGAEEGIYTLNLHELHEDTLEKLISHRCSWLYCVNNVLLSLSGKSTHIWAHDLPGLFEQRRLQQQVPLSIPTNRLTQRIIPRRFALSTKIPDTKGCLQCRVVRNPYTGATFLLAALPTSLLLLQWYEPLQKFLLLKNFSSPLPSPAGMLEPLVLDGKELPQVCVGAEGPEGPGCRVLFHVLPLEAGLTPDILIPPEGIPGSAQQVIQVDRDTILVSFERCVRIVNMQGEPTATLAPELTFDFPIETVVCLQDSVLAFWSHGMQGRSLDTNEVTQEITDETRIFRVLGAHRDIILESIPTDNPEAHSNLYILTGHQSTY
- Test Summary: Kinase profiling in a biochemical assay panel (mobility shift assays and ELISA), %-inhibition at 1 μM; selectivity entropy
- Study Conditions: kinase MAP4K2; compound at 1 μM
# if value of %-inhibition of MAP4K2 reaches 40%, tag Y; if it stays below, tag N

CC(=O)Nc1cccc(-n2c(=O)n(C3CC3)c(=O)c3c(Nc4ccc(I)cc4F)n(C)c(=O)c(C)c32)c1 [trametinib]	N
CCN(CC)CCNC(=O)c1c(C)[nH]c(/C=C2\C(=O)Nc3ccc(F)cc32)c1C [sunitinib]	Y
CNC(=O)c1cc(Oc2ccc(NC(=O)Nc3ccc(Cl)c(C(F)(F)F)c3)c(F)c2)ccn1 [regorafenib]	Y
O=S(=O)(c1cccc2cnccc12)N1CCCNCC1 [fasudil]	N
CC(C)(C)c1nc(-c2cccc(NS(=O)(=O)c3c(F)cccc3F)c2F)c(-c2ccnc(N)n2)s1 [dabrafenib]	N

**Query** Check this compound for %-inhibition of MAP4K2 at or above 40%: Cc1ccc(Nc2nccc(N(C)c3ccc4c(C)n(C)nc4c3)n2)cc1S(N)(=O)=O [pazopanib]
**Result** Y

**Query** // repeat for Cc1ccc(C(=O)Nc2ccc(CN3CCN(C)CC3)c(C(F)(F)F)c2)cc1C#Cc1cnc2cccnn12 [ponatinib] and report
**Result** Y

**Query** What would you report for Cc1cn(-c2cc(NC(=O)c3ccc(C)c(Nc4nccc(-c5cccnc5)n4)c3)cc(C(F)(F)F)c2)cn1 [nilotinib] ?
**Result** N

**Query** How about COc1cc(Nc2c(C#N)cnc3cc(OCCCN4CCN(C)CC4)c(OC)cc23)c(Cl)cc1Cl [bosutinib] ?
**Result** Y

**Query** // repeat for CCCS(=O)(=O)Nc1ccc(F)c(C(=O)c2c[nH]c3ncc(-c4ccc(Cl)cc4)cc23)c1F [vemurafenib] and report
**Result** Y
